- ASSAY_EXPLANATION: Methotrexate concentration in patient serum as function of time after injection, by the radioassay
- Assay type: in vivo
- MEASUREMENT_CONTEXT: human, 63 hours after injection

[
  {
    "COMPOUND": "CN(Cc1cnc2nc(N)nc(N)c2n1)c1ccc(C(=O)N[C@@H](CCC(=O)O)C(=O)O)cc1 [Methotrexate]",
    "concentration at 63 h": "290 ng/mL"
  }
]

###

- ASSAY_EXPLANATION: Methotrexate concentration in patient serum as function of time after injection, by the radioassay
- Assay type: in vivo
- MEASUREMENT_CONTEXT: human, 48 hours after injection

[
  {
    "MOLECULE": "CN(Cc1cnc2nc(N)nc(N)c2n1)c1ccc(C(=O)N[C@@H](CCC(=O)O)C(=O)O)cc1 [Methotrexate]",
    "concentration at 48 h (ng/mL)": 420
  }
]

###

- ASSAY_EXPLANATION: Methotrexate concentration in patient serum as function of time after injection, by the radioassay
- Format: in vivo
- MEASUREMENT_CONTEXT: human, 72 hours after injection
MEASURED_PARAMETER: concentration at 72 h (ng/mL)

[
  {
    "COMPOUND": "CN(Cc1cnc2nc(N)nc(N)c2n1)c1ccc(C(=O)N[C@@H](CCC(=O)O)C(=O)O)cc1 [Methotrexate]",
    "MEASURED_PARAMETER": "concentration at 72 h",
    "RECORDED_VALUE": 200
  }
]

###

- ASSAY_EXPLANATION: Methotrexate concentration in patient serum as function of time after injection, by the radioassay
- Type: in vivo
- MEASUREMENT_CONTEXT: human, 24 hours after injection

[
  {
    "COMPOUND": "CN(Cc1cnc2nc(N)nc(N)c2n1)c1ccc(C(=O)N[C@@H](CCC(=O)O)C(=O)O)cc1 [Methotrexate]",
    "UNIT_STRING": "ng/mL",
    "concentration at 24 h": 7200
  }
]

Ref: patent US4043759A
